These measurements were taken from patent US20210388087A1.

# TESTED_TARGET: T1, Human CD3eg linker (human)
# T1 construct: single-chain construct; also called recombinant human CD3
# T1 chain: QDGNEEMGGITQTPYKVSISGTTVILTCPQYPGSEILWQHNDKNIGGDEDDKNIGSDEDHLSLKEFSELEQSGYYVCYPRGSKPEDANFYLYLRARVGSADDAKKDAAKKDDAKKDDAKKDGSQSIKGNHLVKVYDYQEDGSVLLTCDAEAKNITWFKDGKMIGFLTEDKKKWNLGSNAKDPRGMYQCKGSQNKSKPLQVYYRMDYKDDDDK
# ASSAY_PROCEDURE: SPR, vs unmutated H183/L072
READOUT: fold change of affinity (fold)
Supply the numeric figure in fold, leaving out any unit text.

dBBDu183H P100eV/dBBDu072L (antibody, name in Kabat numbering, V domains shown) VH: QVQLVESGGGLVQPGRSLRLSCAASGFTFSNAWMHWVRQAPGKGLEWVAQIKDKGNAYAAYYAPSVKGRFTISRDDSKNSIYLQMNSLKTEDTAVYYCHYVHYASASTVLVAFGVDAWGQGTTVTVSS VL: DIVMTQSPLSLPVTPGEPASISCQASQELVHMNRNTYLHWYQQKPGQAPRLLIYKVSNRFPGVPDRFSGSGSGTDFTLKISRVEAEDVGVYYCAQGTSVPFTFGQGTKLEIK | 1.5

Consider the record given below.
Ask: Report fold change of affinity for dBBDu183H L100dW/dBBDu072L (antibody, name in Kabat numbering, V domains shown) VH: QVQLVESGGGLVQPGRSLRLSCAASGFTFSNAWMHWVRQAPGKGLEWVAQIKDKGNAYAAYYAPSVKGRFTISRDDSKNSIYLQMNSLKTEDTAVYYCHYVHYASASTVWPAFGVDAWGQGTTVTVSS VL: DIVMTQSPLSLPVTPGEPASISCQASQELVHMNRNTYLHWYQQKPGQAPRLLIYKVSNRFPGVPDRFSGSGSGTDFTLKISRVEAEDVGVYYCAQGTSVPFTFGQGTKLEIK
Result: 1.7
